system: P. falciparum (Pf) 3D7 parasites; assay: P. falciparum LDH viability assay; format: cell-based; settings: Plasmodium falciparum, 3D7, 72 h, LDH activity at 72 h; mean and SD of 3 independent experiments

{"columns": ["COMPOUND", "EC50 [nM]"],
 "data": [
  ["CC1(C(=O)Nc2cncc(Cl)c2)Nc2cc(Cl)ccc2C(=O)N1C1CC1 (stereo not shown)", 27],
  ["CN1C(=O)c2ccc(-c3cnn(C)c3)cc2NC1(C)C(=O)Nc1cncc(Cl)c1 (stereo not shown)", 198],
  ["CN1C(=O)c2ccc3cccnc3c2NC1(C)C(=O)Nc1cncc(Cl)c1 (stereo not shown)", 220],
  ["CCN1c2cc(Cl)ccc2C(=O)N(C)C1(C)C(=O)Nc1cccc(Cl)c1 (stereo not shown)", 53]
]}

====

Quick reference: EC50 of the listed items.
tested on: P. falciparum (Pf) 3D7 parasites; test: P. falciparum LDH viability assay; assay type: cell-based; conditions: Plasmodium falciparum, 3D7, 72 h, LDH activity at 72 h; mean and SD of 3 independent experiments

{"columns": ["COMPOUND", "TESTED TARGET", "EC50, µM"],
 "data": [
  ["CN1C(=O)c2ccc(Cl)cc2N(C)C1(C)C(=O)Nc1cccc(Cl)c1 (centres unmarked) [Compound 12]", "P. falciparum (Pf) 3D7 parasites", 0.115],
  ["CN1c2cc(Cl)ccc2C(=O)N(C2CC2)C1(C)C(=O)Nc1cncc(Cl)c1 (centres unmarked) [Compound 17]", "P. falciparum (Pf) 3D7 parasites", 0.023],
  ["CN1C(=O)c2ccc(Cl)cc2N(C)C1(C)C(=O)Nc1cncc(Cl)c1 (centres unmarked) [Compound 15]", "P. falciparum (Pf) 3D7 parasites", 0.047],
  ["COc1cc(F)c2c(c1)NC(C)(C(=O)Nc1cncc(Cl)c1)N(C)C2=O (centres unmarked) [Compound 36]", "P. falciparum (Pf) 3D7 parasites", 0.021],
  ["CN1C(=O)c2ccc3ncccc3c2NC1(C)C(=O)Nc1cncc(Cl)c1 (centres unmarked) [Compound 26]", "P. falciparum (Pf) 3D7 parasites", 0.09]
]}

====

Quick reference: microsomal CLint of the listed items.
assay: Human liver microsome stability; format: in vitro ADME; conditions: human liver microsomes; read-out: HLM CLint
REPORTED PROPERTY: microsomal CLint

{"columns": ["COMPOUND", "RESULT"],
 "data": [
  ["COc1cc(F)c2c(c1)NC(C)(C(=O)Nc1cncc(Cl)c1)N(C)C2=O (stereo not drawn) [Compound 36]", "34 µL/min/mg"],
  ["CN1C(=O)c2ccc(-c3cnn(C)c3)cc2NC1(C)C(=O)Nc1cncc(Cl)c1 (stereo not drawn) [Compound 32]", "34 µL/min/mg"],
  ["CN1C(=O)c2ccc(Cl)cc2NC1(C)C(=O)Nc1cncc(Cl)c1 (stereo not drawn) [Compound 14]", "60 µL/min/mg"],
  ["CC1(C(=O)Nc2cncc(Cl)c2)Nc2cc(Cl)ccc2-c2nccn21 (stereo not drawn) [Compound 27]", "110 µL/min/mg"],
  ["CN1C(=O)c2ccc(-n3cccn3)cc2NC1(C)C(=O)Nc1cncc(Cl)c1 (stereo not drawn) [Compound 33]", "37 µL/min/mg"],
  ["CN1c2cc(Cl)ccc2C(=O)N(C2CC2)C1(C)C(=O)Nc1cncc(Cl)c1 (stereo not drawn) [Compound 17]", "267 µL/min/mg"]
]}

Data origin, for the record: paper PMC11648822
